Test: AP1 Signaling Pathway (AID 357);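 also: ME-180 reporter cells stimulated with EGF at its EC50 level; % is scaled to controls: 0 for no effect and ±100 for the full control effect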
Conditions: ME-180 (cervical carcinoma) AP-1-bla reporter, EGF-induced, beta-lactamase ratio, 5 h; at 7.69 µM (top of the series) unless noted
Results filed as inconclusive are left out. Calls of active or inactive are those of the source. Calls follow the shape of the dose curve; as a rule, active = well fitted curve in either direction with a large enough effect (not every such curve was filed as active); inconclusive = small, poorly fitted or top-dose-only effect, or another doubt; inactive = flat fitted curve, though single readings scatter.
Provide the reported activity change, negative = inhibition of each item.

Consider the worked cases shown below.
CHEMICAL SMILES | activity change, negative = inhibition
O=C(Nc1ccc(Nc2ccc3c(c2)C(=O)c2ccccc2C3=O)c2c1C(=O)c1ccccc1C2=O)c1ccccc1 | -0.845% (inactive)
c1ccc2c[n+](Cc3ccnc4ccccc34)ccc2c1 | 12.4% (inactive)
[N-]=[N+]=CC(=O)COC(=O)c1ccccc1 | 9.2% (inactive)

Below are 7 compounds. Give each one its activity change, negative = inhibition.
1. NC(N)=NC[C@@H]1CCCCCCN1
2. Oc1ccc2ccccc2c1CN(Cc1c(O)ccc2ccccc12)C1CCCCC1
3. Nc1[nH]c(=S)[nH]c(=O)c1N=Nc1c(Br)cc(S(N)(=O)=O)cc1Br
4. NC(N)=NC(N)=Nc1c(F)c(F)c(F)c(F)c1F
5. O=C(O)Cc1c[nH]c2ccc(F)cc12
6. C/C(=N\NC(=O)c1ccncc1)c1ccc2ccccc2c1O
7. O=C(N/N=C\c1cccc(O)c1)c1ccncc1

Output:
2% (inactive)
3.63% (inactive)
1.56% (inactive)
8.28% (inactive)
0.0381% (inactive)
7.91% (inactive)
-2.52% (inactive)

Required: activity change, negative = inhibition, one value per compound below.
1. Clc1ccc2c(c1)N(CCCN1CCCC13CCCCC3)c1ccccc1S2
2. Br/C(=N\Nc1nn[nH]n1)c1ccncc1
3. O=S(=O)(c1ccccc1)N1CCC[C@@]2(CCN(Cc3ccccc3)C2)C1
4. c1ccc(-c2ccc(-c3ccc(C4=NCCN4)cc3)o2)cc1
5. O=C(O)/C=C\C(=O)N1Cc2cc3ccccc3nc2C1
6. O=[N+]([O-])c1cccc(/C=N\Nc2ccc3ccccc3n2)c1O

Output:
1. 19% (inactive)
2. 9.43% (inactive)
3. 6.44% (inactive)
4. 8.2% (inactive)
5. 6.48% (inactive)
6. -13.9% (inactive)

###

Assay: qHTS assay for small molecule disruptors of the mitochondrial membrane potential - 5 hr assay (AID 651755); also: nearly all actives have a fitted effect of over 40% in size
Details: JC-1-type ratio dye; series mostly up to 92.2 µM
Records with an inconclusive call do not appear. Active and inactive are the calls of the source. Calls come from the whole dose curve.
Field 'call' accepts active, inactive

Illustrative cases are given below, each with its answer.
COMPOUND | ASSIGNED CATEGORY
c1ccc(SCCSc2ccccc2)cc1 | inactive
Nc1cc(C(=O)O)c(O)c(S(=O)(=O)O)c1 | inactive
O=[N+]([O-])c1ccc(F)cc1F | inactive
CCOC(=O)C1OC1c1ccccc1 (centres undefined) | inactive

Input: Please share the test call associated with "CC(C)S" .
Output: inactive

Input: Which outcome was assigned to CCCCC(CC)COP(=O)(OCC(CC)CCCC)OCC(CC)CCCC (centres undefined) in this test?
Output: inactive

Input: Hey, what did the test say about "O=C(O)c1ccc([N+](=O)[O-])cc1" ?
Output: inactive

Input: Test call, this compound: "S=C(NC1CCCCC1)NC1CCCCC1"
Output: inactive

Input: Which outcome did this test record for the compound "COc1ccc(C(=O)Nc2ccccc2)cc1[N+](=O)[O-]" ?
Output: active

Input: What outcome does the record of this test show for "O=[N+]([O-])c1ccccc1Nc1ccccc1" ?
Output: inactive

Input: How was "C/C=C1/C(=O)C[C@H]2[C@@H]3CCC4=CC(=O)CC[C@]4(C)[C@H]3CC[C@]12C" classified in this test?
Output: inactive

Input: Short answer needed: outcome of this test for "CCCCCCCCOc1ccc(C(=O)O)cc1" ?
Output: inactive

Input: What classification did "O=c1[nH]ncc2ccccc12" end up with in this test?
Output: inactive

Input: Which outcome was assigned to "Nc1ccc2c(c1)C(=O)c1ccccc1C2=O" in this test?
Output: active
